tested on: EGFP reporter gene silenced by DNA methylation (B2-17 cells); assay: Compound effective assay: derepression of EGFP reporter in B2-17 reporter cells (image-based, titration); assay type: cell-based; settings: B2-17 cells, 72 h treatment, dose-response of EGFP+ cells; read-out: EC50 (relative half maximal effect concentration)
endpoint: EC50 (µM)

// solved cases for EC50 follow
C=CCc1cc(/C=N/Nc2ccc(Br)cc2)cc(OCC)c1OC
1.9
O=C(Cn1c2ccc(Br)cc2n2nc(-c3cccs3)nc12)c1ccc(Br)cc1 [17a]
19.4
Cc1cc(NC(=O)CSc2nc3ccc(Br)cc3c3nc4ccccc4n23)no1
4.2
Cc1cc2c(cc1C)n1nc(-c3nccs3)nc1n2CC(=O)c1ccc(Br)cc1 [14b]
3.4
Cc1n[nH]c(Nc2ccc(/N=N/c3ccccc3)cc2)c1[N+](=O)[O-]
4.1
Cc1cc2c(cc1C)n1nc(-c3cccs3)nc1n2CC(=O)c1ccc(Br)cc1 [14a]
28
Cc1ccc(-c2ccc(-c3nc4n(CC(=O)c5ccc(Br)cc5)c5ccccc5n4n3)s2)cc1
29.9
O=C(Cn1c2ccc(Cl)cc2n2nc(-c3cccs3)nc12)c1ccc(Br)cc1
14.9
O=C(Cn1c2ccccc2n2nc(Cc3ccccc3)nc12)c1ccc(Br)cc1 [22f]
6.4
O=C(Cn1c2ccccc2n2nc(-c3cccs3)nc12)c1cccs1
2.3

P = O=C(Cn1c2ccccc2n2nc(-c3cccs3)nc12)c1ccc(O)cc1
Q = COc1ccc(NC(=O)c2ccco2)cc1NC(=O)c1ccc(-c2cccc([N+](=O)[O-])c2)o1
R = O=C(Cn1c2ccccc2n2nc(-c3cccs3)nc12)c1ccc(Br)cc1
S = O=C(Cn1c2ccccc2n2nc(-c3cccs3)nc12)c1ccc([N+](=O)[O-])cc1
Kindly order the items shown according to EC50, from the highest value down. Please, when replying, give the labels in the order that was requested. S, P, R, Q

====

test system: EGFP reporter gene silenced by DNA methylation (B2-17 cells); assay: Compound effective assay: derepression of EGFP reporter in B2-17 reporter cells (image-based, titration); format: cell-based; details: B2-17 cells, 72 h treatment, dose-response of EGFP+ cells; read-out: EC50 (relative half maximal effect concentration)
endpoint: EC50 (µM)

// solved cases for EC50 follow
COC(=O)c1ccc(C(=O)Cn2c3ccccc3n3nc(-c4cccs4)nc23)cc1 [7d]
2.4
O=C(Cn1c2ccccc2n2nc(-c3cccs3)nc12)c1ccc(C(F)(F)F)cc1 [7e]
3.7
O=C(Cn1c2ccc(Br)cc2n2nc(-c3ccc(Br)s3)nc12)c1ccc(Br)cc1 [17c]
21.8

a = COc1ccc(C(=O)Cn2c3ccccc3n3nc(-c4cccs4)nc23)cc1 [7b]
b = O=C(Cn1c2ccccc2n2nc(-c3ccc(Cl)s3)nc12)c1ccc(Br)cc1 [compound 29]
Which of the two gives a bigger number for EC50: a or b ? Use the label to indicate which entry you chose. b
(b: 8.9 µM, a: 6.2 µM)

====

tested on: EGFP reporter gene silenced by DNA methylation (B2-17 cells); assay: Compound effective assay: derepression of EGFP reporter in B2-17 reporter cells (image-based, titration); type: cell-based; conditions: B2-17 cells, 72 h treatment, dose-response of EGFP+ cells; read-out: EC50 (relative half maximal effect concentration)
pEC50: −log10 of the molar value.
endpoint: pEC50

COc1ccccc1-c1nc2n(CC(=O)c3ccc(Br)cc3)c3ccccc3n2n1 [22b]
5.17

1 = O=C(Cn1c2ccccc2n2nc(-c3cccs3)nc12)c1nccs1
2 = CCc1ccc(CNc2ccc(CNc3ncn[nH]3)cc2)cc1
Which of the two gives a bigger number for pEC50: 1 or 2 ? Use the label to indicate which entry you chose. 2

I = O=C(Cn1c2ccccc2c(=O)c2ccccc21)N/N=C/c1ccc(Sc2nc3ccccc3s2)c([N+](=O)[O-])c1
II = O=C(Cn1c2ccccc2n2nc(-c3nccs3)nc12)c1ccc(Br)cc1 [22c]
Which of the two gives a bigger number for pEC50: I or II ? Use the label to indicate which entry you chose. I
